# tested.target: Sodium-dependent noradrenaline transporter (Homo sapiens, UniProt P23975)
# Sequence (P23975 whole entry): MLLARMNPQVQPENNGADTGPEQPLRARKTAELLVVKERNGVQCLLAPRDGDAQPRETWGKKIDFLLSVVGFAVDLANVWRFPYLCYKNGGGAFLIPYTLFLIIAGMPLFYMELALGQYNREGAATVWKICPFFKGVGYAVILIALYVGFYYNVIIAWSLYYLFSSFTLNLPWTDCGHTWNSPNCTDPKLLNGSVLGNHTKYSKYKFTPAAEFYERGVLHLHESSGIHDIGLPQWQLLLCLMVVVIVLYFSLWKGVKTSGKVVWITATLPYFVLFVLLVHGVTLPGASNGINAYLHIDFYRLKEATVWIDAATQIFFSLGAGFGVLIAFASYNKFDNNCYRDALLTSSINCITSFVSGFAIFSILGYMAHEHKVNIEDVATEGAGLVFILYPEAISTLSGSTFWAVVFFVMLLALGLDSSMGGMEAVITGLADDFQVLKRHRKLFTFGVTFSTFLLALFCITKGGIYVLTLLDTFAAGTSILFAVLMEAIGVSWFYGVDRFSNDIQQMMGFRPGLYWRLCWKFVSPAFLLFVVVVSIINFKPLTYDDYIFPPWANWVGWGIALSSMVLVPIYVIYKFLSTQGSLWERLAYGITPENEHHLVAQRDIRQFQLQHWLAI
endpoint.name: IC50 (nM)
State just the number; it will be interpreted in nM.

-- ask // IC50 lookup, key: CN1C2CCC1[C@@H](COC(=O)CC[S+]1CC[S+](C)[Re]1([Br])([CH]=O)([CH]=O)[CH]=O)[C@@H](c1ccc(F)cc1)C2 (stereo partly specified)
-- reply 7.3
